B1: MYL5 (parent)
chain: FQFASIDVAGNLDYKALSYVITHG

# Variants of: B1
# measurement-description: protein stability index of a GFP-peptide fusion (GPS, HEK-293T) (PSI 1-6); higher = more stable;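 further: lentivirally expressed fusions sorted by FACS into six bins by GFP to DsRed ratio, PSI derived from sequencing read proportions per bin multiplied by bin number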
# condition-details: c terminus: a fixed tail appended
Is protein stability index at least 3? Then MET. If not, NOT MET.

[
  {
    "sequence-change": "A9Y",
    "cat": "MET"
  },
  {
    "sequence-change": "Q2V",
    "cat": "MET"
  },
  {
    "sequence-change": "D13A",
    "cat": "MET"
  },
  {
    "sequence-change": "K15Q",
    "cat": "MET"
  },
  {
    "sequence-change": "Y19N",
    "cat": "NOT MET"
  },
  {
    "sequence-change": "F1T",
    "cat": "NOT MET"
  },
  {
    "sequence-change": "L17C",
    "cat": "MET"
  },
  {
    "sequence-change": "N11D",
    "cat": "NOT MET"
  },
  {
    "sequence-change": "T22I",
    "cat": "NOT MET"
  },
  {
    "sequence-change": "L12T",
    "cat": "NOT MET"
  },
  {
    "sequence-change": "Y19S",
    "cat": "NOT MET"
  },
  {
    "sequence-change": "G10Q",
    "cat": "MET"
  },
  {
    "sequence-change": "A16S",
    "cat": "NOT MET"
  },
  {
    "sequence-change": "S5W",
    "cat": "NOT MET"
  },
  {
    "sequence-change": "V20Y",
    "cat": "NOT MET"
  },
  {
    "sequence-change": "K15Y",
    "cat": "MET"
  },
  {
    "sequence-change": "N11A",
    "cat": "NOT MET"
  },
  {
    "sequence-change": "F3T",
    "cat": "NOT MET"
  },
  {
    "sequence-change": "L17H",
    "cat": "NOT MET"
  },
  {
    "sequence-change": "Q2A",
    "cat": "NOT MET"
  },
  {
    "sequence-change": "H23K",
    "cat": "NOT MET"
  },
  {
    "sequence-change": "A9L",
    "cat": "NOT MET"
  },
  {
    "sequence-change": "F1Y",
    "cat": "NOT MET"
  },
  {
    "sequence-change": "V8N",
    "cat": "NOT MET"
  },
  {
    "sequence-change": "A16L",
    "cat": "NOT MET"
  },
  {
    "sequence-change": "F1L",
    "cat": "NOT MET"
  },
  {
    "sequence-change": "Y14T",
    "cat": "MET"
  },
  {
    "sequence-change": "S5D",
    "cat": "NOT MET"
  },
  {
    "sequence-change": "V20M",
    "cat": "NOT MET"
  },
  {
    "sequence-change": "I21H",
    "cat": "NOT MET"
  },
  {
    "sequence-change": "V20C",
    "cat": "MET"
  },
  {
    "sequence-change": "F1Q",
    "cat": "NOT MET"
  },
  {
    "sequence-change": "Y14S",
    "cat": "NOT MET"
  },
  {
    "sequence-change": "F1V",
    "cat": "MET"
  },
  {
    "sequence-change": "K15F",
    "cat": "NOT MET"
  },
  {
    "sequence-change": "L17N",
    "cat": "NOT MET"
  },
  {
    "sequence-change": "D7N",
    "cat": "NOT MET"
  },
  {
    "sequence-change": "V20P",
    "cat": "NOT MET"
  },
  {
    "sequence-change": "Q2T",
    "cat": "NOT MET"
  },
  {
    "sequence-change": "Y14M",
    "cat": "NOT MET"
  },
  {
    "sequence-change": "A9K",
    "cat": "NOT MET"
  },
  {
    "sequence-change": "L17M",
    "cat": "MET"
  },
  {
    "sequence-change": "L17K",
    "cat": "NOT MET"
  },
  {
    "sequence-change": "L12S",
    "cat": "NOT MET"
  },
  {
    "sequence-change": "S5N",
    "cat": "MET"
  },
  {
    "sequence-change": "F3E",
    "cat": "NOT MET"
  },
  {
    "sequence-change": "A9Q",
    "cat": "NOT MET"
  },
  {
    "sequence-change": "F1E",
    "cat": "NOT MET"
  },
  {
    "sequence-change": "Y19H",
    "cat": "NOT MET"
  },
  {
    "sequence-change": "F3Y",
    "cat": "NOT MET"
  },
  {
    "sequence-change": "L12F",
    "cat": "MET"
  },
  {
    "sequence-change": "Q2R",
    "cat": "MET"
  },
  {
    "sequence-change": "A16F",
    "cat": "MET"
  },
  {
    "sequence-change": "V8K",
    "cat": "NOT MET"
  },
  {
    "sequence-change": "I21N",
    "cat": "NOT MET"
  },
  {
    "sequence-change": "I6Y",
    "cat": "NOT MET"
  },
  {
    "sequence-change": "G10L",
    "cat": "NOT MET"
  },
  {
    "sequence-change": "V20H",
    "cat": "MET"
  },
  {
    "sequence-change": "F1A",
    "cat": "NOT MET"
  },
  {
    "sequence-change": "L17F",
    "cat": "NOT MET"
  },
  {
    "sequence-change": "Y19F",
    "cat": "NOT MET"
  },
  {
    "sequence-change": "F3Q",
    "cat": "NOT MET"
  },
  {
    "sequence-change": "T22D",
    "cat": "NOT MET"
  },
  {
    "sequence-change": "S18L",
    "cat": "NOT MET"
  },
  {
    "sequence-change": "F1G",
    "cat": "NOT MET"
  },
  {
    "sequence-change": "G10I",
    "cat": "NOT MET"
  },
  {
    "sequence-change": "N11W",
    "cat": "NOT MET"
  },
  {
    "sequence-change": "I21P",
    "cat": "NOT MET"
  },
  {
    "sequence-change": "F3P",
    "cat": "NOT MET"
  },
  {
    "sequence-change": "F1R",
    "cat": "NOT MET"
  },
  {
    "sequence-change": "V8W",
    "cat": "NOT MET"
  },
  {
    "sequence-change": "T22W",
    "cat": "MET"
  },
  {
    "sequence-change": "Y14P",
    "cat": "NOT MET"
  },
  {
    "sequence-change": "Y14H",
    "cat": "NOT MET"
  },
  {
    "sequence-change": "I6M",
    "cat": "MET"
  }
]
